This collection of values is drawn from the Immune Epitope Database (IEDB).

tgt: HLA-B*39:01
assay-method-text: IEDB peptide-MHC binding, purified MHC/competitive/fluorescence; filed as Kd, often an IC50 or EC50 that approximates it; bounds were set here for any values at or beyond the usual limits of such assays
condition-notes: source organism: Burkholderia pseudomallei K96243
measured-quantity: Kd

Measured Kd, "LMRRFRFTV" : ≥ 20 µM

----------
tgt: HLA-B*51:01
assay-method-text: IEDB peptide-MHC binding, purified MHC/competitive/radioactivity; filed as Kd, often an IC50 or EC50 that approximates it; bounds were set here for any values at or beyond the usual limits of such assays
condition-notes: source organism: Dengue virus 1 Singapore/S275/1990
measured-quantity: Kd (nM)
Give bare numbers, in nM.

Measured Kd, "WPLNEGIMAV" : 304
